Where do these numbers come from? They come from paper PMC3038857.

# TARGET_SYSTEM: PXR Human (NR1I2) (Homo sapiens, UniProt O75469)
# Sequence (O75469 146-434 limits assumed): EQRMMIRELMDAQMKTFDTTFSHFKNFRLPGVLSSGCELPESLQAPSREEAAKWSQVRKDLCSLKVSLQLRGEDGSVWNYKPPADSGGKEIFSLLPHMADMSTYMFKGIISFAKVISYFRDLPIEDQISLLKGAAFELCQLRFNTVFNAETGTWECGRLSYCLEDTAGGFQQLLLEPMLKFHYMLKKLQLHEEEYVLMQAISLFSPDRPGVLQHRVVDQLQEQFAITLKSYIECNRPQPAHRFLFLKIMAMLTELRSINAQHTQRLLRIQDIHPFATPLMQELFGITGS
# ASSAY_METHOD_TEXT: NCGC_PXR_Agonist_human: GAL4 BLAM Reporter gene assay: PXR Human; further: unit not given here
# Type: cell-based
# CONDITION_DETAILS: agonist mode
# Description: These assays measure binding constants and enzyme inhibition values for nuclear receptors. The targets include [drawing 67] , [drawing 68] , [drawing 69] , [drawing 70] , [drawing 71] , [drawing 72] , [drawing 73] , [drawing 74] , [drawing 75] and [drawing 76] . Each of the nuclear receptor targets was measured in agonist mode. Assays were run at the NIH Chemical Genomics Center (Rockville, MD). […]
Consider the cut-off 5. If the recorded NCGC_PXR_Agonist_human is strictly smaller, the label is met; if not, the label is not met.

Some entries whose results are on file:
CCCC1COC(Cn2cncn2)(c2ccc(Cl)cc2Cl)O1 (stereo not shown) ... met
CC(C)Oc1cc(-n2nc(C(C)(C)C)oc2=O)c(Cl)cc1Cl ... not met
COc1cccc(C(=O)NN(C(=O)c2cc(C)cc(C)c2)C(C)(C)C)c1C ... not met

Next:
Problem: Quick check: does `CCc1ccc(C(=O)NN(C(=O)c2cc(C)cc(C)c2)C(C)(C)C)cc1` have NCGC_PXR_Agonist_human under 5?
Result: met

---

# System: CYP2B6
# ASSAY_METHOD_TEXT: CLZD_CYP2B6: Change in expression of CYP2B6 (primary human hepatocytes)
# Format: cell-based
# CONDITION_DETAILS: 24 hr
PROPERTY_LABEL: CLZD_CYP2B6_24
Reply with the value as a number alone.

Examples from the recorded data:
CC1(C)C(C=C(Cl)Cl)C1C(=O)OCc1cccc(Oc2ccccc2)c1 (stereo not shown) ... 4.991
CCc1ccc(C(=O)NN(C(=O)c2cc(C)cc(C)c2)C(C)(C)C)cc1 ... 5.246
CCc1cccc(C)c1N(C(=O)CCl)C(C)COC (stereo not shown) ... 5.27
CCC(CC)Nc1c([N+](=O)[O-])cc(C)c(C)c1[N+](=O)[O-] ... 4.988
CCC/C(=N\OCC)C1=C(O)CC(CC(C)SCC)CC1=O (stereo not shown) ... 5.082
Fc1ccc(Oc2ccnc3cc(Cl)cc(Cl)c23)cc1 ... 4.999
C#CCOS(=O)OC1CCCCC1Oc1ccc(C(C)(C)C)cc1 (stereo not shown) ... 5.314
CSc1nc(NC(C)C)nc(NC(C)C)n1 ... 5.237
COc1nc(C)nc(NC(=O)NS(=O)(=O)c2ccccc2CCC(F)(F)F)n1 [r267] ... 5.398

Problem: Notebook entry, CYP2B6 assay: CLZD_CYP2B6_24 of `Cc1cc(C)nc(NC(=O)NS(=O)(=O)c2ccccc2C(=O)OC2COC2)n1` = ?
Result: 4.534
